I'd be grateful if you could share measured inhibition at 10 µM for these entries.
- experimental.target: Recombinant human aldo-keto reductase family 1 member C2 (AKR1C2) protein (Homo sapiens, UniProt P52895)
- Construct: made in house; host or cells: Sf-9 insect cells (baculovirus)
- Sequence (P52895 whole entry): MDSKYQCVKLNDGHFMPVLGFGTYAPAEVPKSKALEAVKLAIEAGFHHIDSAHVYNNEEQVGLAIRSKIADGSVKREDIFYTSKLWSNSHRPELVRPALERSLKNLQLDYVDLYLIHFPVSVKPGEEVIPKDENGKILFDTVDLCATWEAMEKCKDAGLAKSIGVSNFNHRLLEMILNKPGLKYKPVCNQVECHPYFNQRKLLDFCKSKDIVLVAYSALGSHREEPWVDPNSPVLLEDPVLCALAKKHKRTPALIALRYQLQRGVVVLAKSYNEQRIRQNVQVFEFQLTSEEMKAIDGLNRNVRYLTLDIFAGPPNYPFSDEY
- protocol.summary: Inhibition of the aldo-keto reductase family 1 member C2, 3H-dihydrotestosterone conversion
- Type: biochemical
- condition.parameters: inhibitor at 10 μM
Provide only the numeric value, understood in %.

Q: For N#CC(=C1CCN(C(=O)N2CCn3ncnc3C2)CC1)c1ccc(Cl)s1 , write its inhibition at 10 µM.
A: 24

Q: Look up and state reported inhibition at 10 µM for CCOC1CCN(C(=O)N2CCC(=C(C#N)c3ccc(C(F)(F)F)cc3)CC2)CC1
A: 2

Q: Output measured inhibition at 10 µM for this item: N#CC(=C1CCN(C(=O)N2CCC(CCO)CC2)CC1)c1ccc(C(F)(F)F)cc1
A: 7

Q: For the compound CCOC1CCN(C(=O)N2CCC(=C(C#N)c3ccc(Cl)s3)CC2)CC1 , report inhibition at 10 µM.
A: 18

Q: State its inhibition at 10 µM for this compound: N#CC(=C1CCN(C(=O)N2CCC(CO)CC2)CC1)c1ccc(F)cc1
A: 12

Q: Give inhibition at 10 µM for N#CC(=C1CCN(C(=O)N2CCc3sccc3C2)CC1)c1ccc(F)c(F)c1
A: 27

Q: Return inhibition at 10 µM (reported value) for this compound: CC(O)C1CCN(C(=O)N2CCC(=C(C#N)c3ccc(OC(F)(F)F)cc3)CC2)CC1 (centres unmarked)
A: 4

Q: Specify reported inhibition at 10 µM for the compound shown: CC(O)C1CCN(C(=O)N2CCC(=C(C#N)c3cccc(Cl)c3)CC2)CC1 (centres unmarked)
A: 14

Q: Query inhibition at 10 µM for N#CC(=C1CCN(C(=O)N2CCC(CCCO)CC2)CC1)c1ccc(F)cc1
A: 3

Q: Give the value of inhibition at 10 µM reported for the following: CCN(CC)C(=O)N1CCC(=C(C#N)c2ccc(OC(F)(F)F)cc2)CC1
A: 4

Q: Give the measured inhibition at 10 µM for Cn1ncc2cccc(C(C#N)=C3CCN(C(=O)N4CCc5[nH]ncc5C4)CC3)c21
A: 6

Q: Please report inhibition at 10 µM for the following compound: CCOC1CCN(C(=O)N2CCC(=C(C#N)c3cccc(Cl)c3)CC2)CC1
A: 11

Q: Please supply the value of reported inhibition at 10 µM for the item N#CC(=C1CCN(C(=O)N2CCn3cncc3C2)CC1)c1ccc(F)cc1F
A: 33

Q: Give the value of inhibition at 10 µM reported for the following: N#CC(=C1CCN(C(=O)N2CCn3cncc3C2)CC1)c1ccc(OC(F)(F)F)cc1
A: 3

Q: Note down inhibition at 10 µM recorded for N#CC(=C1CCN(C(=O)N2CCC(O)CC2)CC1)c1n[nH]c2ccc(F)cc12
A: 7

Q: Supply measured inhibition at 10 µM of N#CC(=C1CCN(C(=O)N2CCC(CO)CC2)CC1)c1cc(F)cc(F)c1 in your reply.
A: 16

Q: Read the entry N#CC(=C1CCN(C(=O)N2CCSCC2)CC1)c1ccc(F)cc1 and write its reported inhibition at 10 µM.
A: 6

Q: Supply inhibition at 10 µM value. Item: N#CC(=C1CCN(C(=O)N2CCC(CO)CC2)CC1)c1cccc(Cl)c1
A: 13

Q: Tell me inhibition at 10 µM reported for N#CC(=C1CCN(C(=O)N2CCC(O)CC2)CC1)c1cc(F)cc(F)c1
A: 6

Q: Given COC[C@@H]1CCCN1C(=O)N1CCC(=C(C#N)c2ccc(Cl)cc2)CC1 , respond with its inhibition at 10 µM.
A: 3

Q: Dear colleague, please send me the reported inhibition at 10 µM for N#CC(=C1CCN(C(=O)N2CCCCC2)CC1)c1ccc(Cl)cc1 when you can.
A: 5

Q: Input CN(C(=O)N1CCC(=C(C#N)c2ccc(Cl)cc2)CC1)C1CCOCC1 , output reported inhibition at 10 µM.
A: 16

Q: Hello, please tell me recorded inhibition at 10 µM for this one: N#CC(=C1CCN(C(=O)N2CCc3sccc3C2)CC1)c1cccc2[nH]ncc12
A: 11

Q: Give reported inhibition at 10 µM value for N#CC(=C1CCN(C(=O)N2CCc3[nH]cnc3C2)CC1)c1ccc(F)cc1
A: 8

Q: Please report the measured inhibition at 10 µM for CC(=O)N1CCN(C(=O)N2CCC(=C(C#N)c3cccc(Cl)c3)CC2)CC1
A: 13

Q: Read off the recorded inhibition at 10 µM for N#CC(=C1CCN(C(=O)N2CCc3[nH]ncc3C2)CC1)c1cc(F)cc(F)c1
A: 26

Q: Identify measured inhibition at 10 µM corresponding to N#CC(=C1CCN(C(=O)N2CCn3cncc3C2)CC1)c1ccc(Cl)cn1
A: 11

Q: Tell me measured inhibition at 10 µM for N#CC(=C1CCN(C(=O)N2CCC(S(N)(=O)=O)CC2)CC1)c1ccc(Cl)s1 please.
A: 24

Q: Look up and state reported inhibition at 10 µM for N#CC(=C1CCN(C(=O)N2CCc3ccccc32)CC1)c1ccc(F)cc1
A: 17

Q: Please indicate inhibition at 10 µM recorded for N#CC(=C1CCN(C(=O)N2CCOCC2)CC1)c1ccc(C(F)(F)F)cc1
A: 5

Q: // Input: N#CC(=C1CCN(C(=O)N2CCn3ncnc3C2)CC1)c1cc(F)cc(F)c1 . Output its inhibition at 10 µM only.
A: 13

Q: Return value of inhibition at 10 µM for input N#CC(=C1CCN(C(=O)N2CCn3cncc3C2)CC1)c1ccc(Cl)s1 , no commentary.
A: 32

Q: Consider the compound N#CC(=C1CCN(C(=O)N2CCC(CCCO)CC2)CC1)c1ccc(Cl)cc1 . State its measured inhibition at 10 µM.
A: 8

Q: Specify measured inhibition at 10 µM for N#CC(=C1CCN(C(=O)N2CCCC2)CC1)c1ccc(F)cc1 .
A: 8

Q: Look up and state reported inhibition at 10 µM for N#CC(=C1CCN(C(=O)N2CCC(CO)CC2)CC1)c1ccc(F)c(F)c1
A: 16
